# System: KRAS-mutant PDC complex spheroid viability
# ASSAY_SUMMARY: Anticancer human tumor 186277-243-T-J2-PDC patient-derived colon adenocarcinoma cell line growth inhibition [KRAS2]
# ASSAY_CONTEXT: curve of first compound; second compound 0.1 µM
MEASURED_ENDPOINT: pIC50
Scale: negative log10 of molar concentration, which is what pIC50 denotes.

[[record]]
molecule = "O=C(c1cc(Cc2n[nH]c(=O)c3ccccc23)ccc1F)N1CCN(C(=O)C2CC2)CC1 + CNCc1ccccc1-c1csc(C(C)Nc2nc(C)nc3cc(OC)c(OC)cc23)c1"
measured_endpoint = "pIC50"
obs_value = 5.19

[[record]]
molecule = "CC(=O)Nc1cccc(-n2c(=O)n(C3CC3)c(=O)c3c(Nc4ccc(I)cc4F)n(C)c(=O)c(C)c32)c1 + COc1cc2nc(C)nc(NC(C)c3cc(N)cc(C(F)(F)F)c3)c2cc1OC1CCOC1"
measured_endpoint = "pIC50"
obs_value = 9.34

[[record]]
molecule = "COc1cc2nccc(Oc3ccc(NC(=O)C4(C(=O)Nc5ccc(F)cc5)CC4)cc3)c2cc1OC + C=CC(=O)N1CCN(c2nc(=O)n(-c3c(C)ccnc3C(C)C)c3nc(-c4c(O)cccc4F)c(F)cc23)C(C)C1"
measured_endpoint = "pIC50"
obs_value = 5.73


Next item in the queue.
For this molecule ( CC(C)n1nc(-c2ccc3oc(N)nc3c2)c2c(N)ncnc21 + C=CC(=O)N1CCN(c2nc(=O)n(-c3c(C)ccnc3C(C)C)c3nc(-c4c(O)cccc4F)c(F)cc23)C(C)C1 ), measured pIC50 is 7.90

###

# Tested on: KRAS-mutant PDC complex spheroid viability
# ASSAY_SUMMARY: Anticancer human tumor 186277-243-T-J2-PDC cell line growth inhibition [KRAS2];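 as to viability, T/C: viability read after seven days of compound exposure; 100% = DMSO vehicle-treated spheroids so lower means less viable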
# ASSAY_CONTEXT: second compound 3.16 µM; first compound 1 µM; stronger effect = lower value
MEASURED_ENDPOINT: viability, T/C (%)
// return numeric value only (unit: %, not printed)

[[record]]
compound = "CC(=O)OC12COC1CC(O)C1(C)C(=O)C(O)C3=C(C)C(OC(=O)C(O)C(NC(=O)OC(C)(C)C)c4ccccc4)CC(O)(C(OC(=O)c4ccccc4)C21)C3(C)C (centres undefined) + COc1cc2nc(C)nc(NC(C)c3cc(N)cc(C(F)(F)F)c3)c2cc1OC1CCOC1"
measured_endpoint = "viability, T/C"
obs_value = 2.54


For this compound ( CC(=O)OC12COC1CC(O)C1(C)C(=O)C(O)C3=C(C)C(OC(=O)C(O)C(NC(=O)OC(C)(C)C)c4ccccc4)CC(O)(C(OC(=O)c4ccccc4)C21)C3(C)C (centres undefined) + C=CC(=O)N1CCN(c2nc(=O)n(-c3c(C)ccnc3C(C)C)c3nc(-c4c(O)cccc4F)c(F)cc23)C(C)C1 ), measured viability, T/C is 4.7

For this compound ( COc1cc(Nc2ncc3c(n2)-c2ccc(Cl)cc2C(c2c(F)cccc2OC)=NC3)ccc1C(=O)O + CNCc1ccccc1-c1csc(C(C)Nc2nc(C)nc3cc(OC)c(OC)cc23)c1 ), measured viability, T/C is 3.03

For this compound ( COC(=O)c1ccc2c(C(=Nc3ccc(N(C)C(=O)CN4CCN(C)CC4)cc3)c3ccccc3)c(O)[nH]c2c1 + C=CC(=O)N1CCN(c2nc(=O)n(-c3c(C)ccnc3C(C)C)c3nc(-c4c(O)cccc4F)c(F)cc23)C(C)C1 ), measured viability, T/C is 33.5
